Target: Ubiquitin carboxyl-terminal hydrolase 17-like protein 5 (Homo sapiens) (UniProt A8MUK1)
Sequence (A8MUK1 whole entry, looked up): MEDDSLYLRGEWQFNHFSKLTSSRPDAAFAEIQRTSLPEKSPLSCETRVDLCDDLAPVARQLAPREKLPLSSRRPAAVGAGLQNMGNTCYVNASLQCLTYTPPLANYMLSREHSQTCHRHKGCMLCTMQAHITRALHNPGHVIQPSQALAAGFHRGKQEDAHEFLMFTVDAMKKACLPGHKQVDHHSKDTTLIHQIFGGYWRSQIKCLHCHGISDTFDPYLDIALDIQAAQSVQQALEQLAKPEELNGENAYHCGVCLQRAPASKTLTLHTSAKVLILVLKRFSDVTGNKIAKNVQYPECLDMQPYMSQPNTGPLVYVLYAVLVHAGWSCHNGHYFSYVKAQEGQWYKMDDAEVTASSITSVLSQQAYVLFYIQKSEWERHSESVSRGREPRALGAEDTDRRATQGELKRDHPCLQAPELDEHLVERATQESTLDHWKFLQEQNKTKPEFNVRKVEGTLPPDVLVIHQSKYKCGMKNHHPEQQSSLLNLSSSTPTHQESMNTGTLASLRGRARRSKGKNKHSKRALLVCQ
Assay: ubiquitin-specific protease 17 DUB inhibitors, concentration-effect assay, cell-free, verification of initial screening actives (AID 1645864)
Details: purified USP17, ubiquitin-rhodamine cleavage fluorescence, 3 h
Activity calls are given as the source filed them.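 How the source made its calls: active means maximal inhibition of USP17 at or above 30% in the confirmation dose-response, a value not among the printed readouts; inactive means the rest.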
// one of t for active, f for inactive, no free text

Query: recorded result category for "O=C(O)c1nccnc1C(=O)N1CCc2ccccc2C1" in this test
f

Query: recorded result category for "O=C(NC1CC1)c1ccnn1-c1ccc2ccc(-c3ccncc3)cn12" in this test
f

Query: recorded result category for "O=c1c2ccccc2oc2nc(-c3cccs3)n(-c3ccccc3)c(=O)c12" in this test
t

Query: recorded result category for "COc1ccc(NS(=O)(=O)c2ccc(NC(=O)Nc3ccc(Cl)cc3)cc2)cc1" in this test
t

Query: recorded result category for CC1(C(=O)NC2CCCC2)Cn2c(cc3ccccc32)C(=O)N1c1ccc(F)cc1 (stereo unspecified) in this test
t

Query: recorded result category for "Cc1cc(C)cc(NC(=O)CSc2ccc(-c3ccncc3)nn2)c1" in this test
f

Query: recorded result category for "Cc1ccc2cc(CCNC(=O)c3cccc(Br)c3)c(=O)[nH]c2c1" in this test
t

Query: recorded result category for "Cc1c(-c2nsc(NC(=O)c3ccc(Cl)cc3)n2)nnn1-c1ccccc1F" in this test
t

Query: recorded result category for "COc1cccc(-c2nc3cnccn3c2NCc2ccc3c(c2)OCO3)c1" in this test
f

Query: recorded result category for "COc1ccc(/C=C\c2nccc3c2[nH]c2ccccc23)cc1" in this test
f

Query: recorded result category for "O=C1N(Cc2ccc(F)cc2)CCN1c1ccc(C(F)(F)F)cn1" in this test
f

---

Biological target: Ubiquitin carboxyl-terminal hydrolase 17-like protein 5 (Homo sapiens) (UniProt A8MUK1)
Experiment: ubiquitin-specific protease 17 DUB inhibitors, concentration-effect assay, cell-free, verification of initial screening actives (AID 1645864)
Details: purified USP17, ubiquitin-rhodamine cleavage fluorescence, 3 h
Active and inactive are the calls of the source.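 Rule for the calls: active = maximal inhibition of USP17 at or above 30% in the confirmation dose-response, a value not among the printed readouts; inactive = the rest.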
PROPERTY_MEASURED: IC50

Using the record for "Cc1c(C(=O)Nc2ccc(-c3nnc4n3CCCCC4)cc2)oc2c1ccc1ccccc12" , state its measured IC50.
> 50 µM (inactive)

Using the record for "Cc1cc(C#N)c2c(C)ccc(C(C)C)cc1-2" , state its measured IC50.
> 50 µM (inactive)

Using the record for "Cc1ccc2nc(NC(=O)CSc3nnc(-c4ccncc4)n3C3CC3)sc2c1" , state its measured IC50.
3.82 µM

Using the record for "CCc1cccc(CC)c1NC(=O)COC(=O)c1cc2cccc(OC)c2oc1=O" , state its measured IC50.
4.93 µM

Using the record for "CC1=CC(=O)C(C2=C(O)C(=O)C(C)=CC2=O)=C(O)C1=O" , state its measured IC50.
3.55 µM

Using the record for "Clc1ccc(C[n+]2cc(-c3ccc(Cl)cc3)n3c2CCC3)cc1" , state its measured IC50.
> 50 µM (inactive)

Using the record for "COc1ccc(NC(=O)CN2C(=O)c3ccccc3Sc3ccc(C(=O)N4CCCC4)cc32)cc1OC" , state its measured IC50.
26.1 µM

Using the record for "Cc1nc2cc(NC(=O)C3CN(C(=O)c4cnccn4)C3)ccc2s1" , state its measured IC50.
> 50 µM (inactive)

Using the record for "COc1cc(Cl)c(C)cc1NC(=O)Cn1c(=O)n(CC(=O)NCc2ccco2)c(=O)c2ccccc21" , state its measured IC50.
2.37 µM

Using the record for "Cc1ccccc1C(=O)NCCn1cc(SCC(=O)Nc2ccc3c(c2)OCCO3)c2ccccc21" , state its measured IC50.
> 50 µM (inactive)
